Source listed as the supplement of paper PMC12636428.

Entries and their transcriptional activation domain activity
Tested on: Saccharomyces cerevisiae
Assay: transcriptional activation domain activity (GFP:mCherry ratio, weighted mean of sorted bins, harmonized to initial dataset scale) (arbitrary fluorescence ratio units); higher = stronger transcriptional activation
Details: beta-estradiol 1 µM; induction time 4 h
observable: transcriptional activation domain activity

INSERT INTO assay_data (sequence_code, measured) VALUES
  ('GCVVSCKLVGLFTITLIGVAVLYDLWRIIDIRRGTTMAQFARHFVARALALIA', 21600),
  ('MADEHAAHRRKRARLACLACNARRVKCNVAECRPCHNCAAANVPCETRESRRG', 38300),
  ('DPQTLSVAHRSYLRCLTQRLLLTQPTFTECMYNLLIHTDHLVALIHRLDGVWS', 38400),
  ('LMVDEPFEHRLFFLLLFQEGNVCQAQSFQLSGFECMCMVSSQFFFLVWVLYFM', 45600),
  ('WWLRINLNICISYWIVATGVVVVYDWVLTLYGACQILLVMQMFVLGPCLILSV', 46900),
  ('AKILRELFLLYQPPEELIPSLQQWYLLVQACSGIVTSSDFGNTLFGIARLCLP', 30500),
  ('ESLKHHEGINMVWKKFQSIFRIIEGIVYYEPVYRAFVRHILHHLHLDNVLWVD', 70300),
  ('WPFDESIERNFSTTATAATGESKFDINDNCNRINSKSYSKTNSMNGNGMNNSN', 28400),
  ('GSSGSGAGSKGGPAPRGSSAKRSSGSGSGGGGRKGGGSAGKGSGGGGGRGRSG', 28600);

---

Recorded transcriptional activation domain activity by entry
Test system: Saccharomyces cerevisiae
Assay: transcriptional activation domain activity (GFP:mCherry ratio, weighted mean of sorted bins, harmonized to initial dataset scale) (arbitrary fluorescence ratio units); higher = stronger transcriptional activation
Settings: beta-estradiol 1 µM; induction time 4 h
observable: transcriptional activation domain activity

INSERT INTO assay_data (sequence_code, measured) VALUES
  ('LPQMGVPGEPLTLLVEFADMLIEMWHQCLAQRYYGPIYHLVALIVYTLELNAT', 54200),
  ('AQLHHRTWLIHWSLFPFFNFEPAKETLTEMFFSPAYINTIQTNCPWILRYLAA', 56700),
  ('MLFPFRVSAISPDVICFIPLCFSFCYHFAIRVRGILPSRVRALMMYVWFVWYF', 51900),
  ('AIAEYKWVHLKKGAELTLIDVYDGCTRGLSGFSLTIRAMHFDFVLLVAFLFHL', 50400),
  ('MPPCGLVSLTCLTELVLGLNITACVVILVDGNHLIYILSLFFWCWILLTLPAT', 35500),
  ('EFFVLWVVQAIIGSRLEMYWAVLMICVLRCNQSYVSNACREVWLSWIIHGWVQ', 61500),
  ('KFLRHVLLKYFSFRLRSWMLNWAIGCVVRLFFFILHLLHPSWIFFLIYPYILN', 54400),
  ('MPNKLVYEICFVHLTINCLCRGCLMYCALYIILIIKYHNHLLYFIFFNFMAIP', 38200),
  ('RLSASKIYIWCSGGVVFAIVLALQVLVLLALLNVITCLEGHMLSIHGWPRGEC', 31100);

---

Test system: Saccharomyces cerevisiae
Experiment: transcriptional activation domain activity (GFP:mCherry ratio, weighted mean of sorted bins, harmonized to initial dataset scale) (arbitrary fluorescence ratio units); higher = stronger transcriptional activation
Settings: beta-estradiol 1 µM; induction time 4 h
Threshold rule: transcriptional activation domain activity greater than or equal to 50000 is 1; below that, 0.

INSERT INTO results (sequence_code, group_label) VALUES
  ('MFLKSELHFNEPLQHILISFIFLSCLSNLALMIFSVVYKVYILLALIMLVYAN', 1),
  ('MQTSLLPLFSFLSFLFLLVFLLLLSLYLAFSHVAFSFLSLFFCYISFFLFYSF', 0),
  ('ETAKIDIEKQSNGETDISVLRNHAPGTAPTEEENLEKNMAPLRKLIRLLLLNT', 0),
  ('IRQLFGNYVLLYFFPWGFGCGFLPVLFPVQTCRIYHYLLFYFFFLSPFFFSIP', 0),
  ('EDGEQKKQVLACSFCRERKIACGRPSAHSRDRTCNQCARRCMKCEHPTESRRG', 0),
  ('MIRPFSIYSITLDVFPWLLNLFFLFFFLILFPLLRNFLFCVVSLIQNIQPLCF', 0),
  ('MFCLRSWLPLLFIPTNAPPVFVFLFFACTFFLSRPCVYCSFLLLILFFTSCYW', 1),
  ('IIEEQSGEDDDLPGHKKQRKESLAELLASEPADGTSPRRKSGQIKRTVPAVVL', 0),
  ('PFLPSSLPPFLPSSLPPFLPSSLPPFLPSSLPPSLLFSFLFSFPLPSPPSLPL', 1),
  ('KSNDSSAEKDTRSMVFCETEKVSYTGANFGEDAARDVHCKYLVGVYSKSQKQL', 0),
  ('MFVVLAMLLVILVVIFIFVIFVLIVLIFVILVMLLMLFFILIVIIAVIVLFFF', 0),
  ('NTDTYILFLFPFFWASNWFYTYQQNCYQLFYFNLRGRTFTNLWYWLAQIFGAL', 1),
  ('VLSRVTGLEHKQMCKIILGLIIDLLLPSGGDTSRILRTVRALLDFLYLAQLPS', 1),
  ('GTSGTSVASRPSITPRAFGSSRSSRPSARSGSPSSRTAPSTPAPASSTRRTRP', 0),
  ('MSLFSILYFYYTICFICFLTFLTIKDLHIYLLLKFQITIFLFCYFFVCFLSPL', 1),
  ('ETGSEWREGSSDGFRSVKTVLLGVWAEYGGLRRNEICDTLRRLTLSSLGKINP', 1),
  ('MRNEYYFFTSLSCIFSVLCFVSSFFYLVFSSLVLFFFFFLTGLFYLKFFCWVF', 0),
  ('SKQAGVGGEDEGEEDVPEDFGHSDNIRKKLLEVLGRDRRDRVLSSLYIVRADG', 0),
  ('MGFSIDRAIELIWNLLYFFFLSSFLHIFLGLSWDMIICWNYFLSLFILLVFSS', 1),
  ('MHRPVCSGQSPPFFSPTSPIHFILPFLFSIFSFPHGAGVSMHIGRLVLLFFFF', 1);

---

Test system: Saccharomyces cerevisiae
Test: transcriptional activation domain activity (GFP:mCherry ratio, weighted mean of sorted bins, harmonized to initial dataset scale) (arbitrary fluorescence ratio units); higher = stronger transcriptional activation
Conditions: beta-estradiol 1 µM; induction time 4 h
Categorize each record by its transcriptional activation domain activity using group 1 (below 40000), group 2 (40000 to below 60000), group 3 (60000 or more)

INSERT INTO measurements (sequence_code, group_label) VALUES
  ('PEEKKEKAAEGEATKKEGEVGKKKGKKGDKKKEASGEQAPAAAAPAEEKKAEQ', 'group 1'),
  ('AAAGAADEAKTSSSPNGTKEAAVASSGGEKPAAAGVAGAPNSQSQTGAQPTKK', 'group 1'),
  ('EESGGESGGAADKNARVLSTALELALIVLDTCVELDGGRSLSLEHTALLLAAG', 'group 3'),
  ('VAIFTDVKNDHLMPNFNLHDQYCNSTNHDSHNHNNTVPDSFSQLMSHLSEIDC', 'group 1'),
  ('TPFALFSSCYALNATVDQDYPLLFRRCVLGDTLWVLAILLCILWSLLVCFAFW', 'group 1'),
  ('EAYPEPEEEPTMEPIDLSDDALLQVSYRLQKQNLSSSIVLLLTNRCLFISKPY', 'group 2'),
  ('MLLNLRGHIDEHLQYIIATSFKLMDTAETFALRLANLEVLINTVLYNAAAALH', 'group 2'),
  ('SRVSLTVFRFSYVWLSLIFAIPLLCAVLIELYFLMPLHAWMGPSEPHVVHLIQ', 'group 2'),
  ('KLGVCLLLILDSLHTTFCIYAMYWYLVINFGVFPELAMMHWSFEAQQMLNVLV', 'group 1'),
  ('PELVPLDLKNPELDSSFDLNMNLDLNLNLDSNFNIALNRSDSSGSTMNLDYKL', 'group 3'),
  ('TLSGVLMLFWQPNGQRLIGNATLWCWIRPGLEFYRIVLNYGWIWIILGVNICT', 'group 3'),
  ('LIWSCKLIWAAYLDMYRYHIYVLVSFEVVALLTWILTLLYGVPNLINLVYHAY', 'group 2'),
  ('RLGQCVKRYFDSKQVTHLVNAGKYGTGVVSYLFYFMWSYREESRGANFALWCF', 'group 3'),
  ('SGGGRRRDGGGRRAGGRRDGAGGGRGRGDRGGGGGGGGERGERGGRPKKTQEE', 'group 2'),
  ('PSEEAAAAAVEEEEDVTQPEKPKDPEPTPVQPKATPAPAPTPAKPAVPKSWAS', 'group 1'),
  ('RKLLIALDMRLQNIRSNWKEHHSLTVVIQLTLRLLSLGLSSEVVAGCLDLLKS', 'group 3'),
  ('MGVFILFAFLFFLMFVLLHFFLLLSFFLLSSLMGVYFFPHSMITYMFSFGLRS', 'group 2'),
  ('MYECACFPFPFFLSFFFFLSSFSYGCPFCFVGYRFPLLPLLLSVFLFLGLCLM', 'group 1'),
  ('ASTAGPAAGGSVSAAPKRRGRPPKRKAEPEQGAEAQPAKKPRGRPRKSAVVEA', 'group 1'),
  ('YTIGFVGFVMSLQKGYLKQQFGLFCWVHMSLLIIVLSSHFVINNILEGLIWFW', 'group 2'),
  ('GEEVSAPLPKPKGKGGRPRKHPRPEPVASEYEVDGEPTPKRARRAIKSKRGRR', 'group 1'),
  ('MSPSSAVFFFFFFCIALFDSVWLVSFFMVLFFLFDSSLYSLLFFSCLFFFIHS', 'group 2'),
  ('AGLTLPRTSDYSLFYYFLLWFTLFGLAMLFIIIHGIDYVSWPRLIPLTDIIYY', 'group 1'),
  ('MCVWELVLVLVVWCFRCFSFFHPLHFLPWLLYPSPLISLFFCLFYPLLFFVFF', 'group 1'),
  ('MYELAFFFFFFLFRLFLSLFRGGCFWVQIFVFIPEYLVYSILFSFFFLLLFTF', 'group 2'),
  ('MTNRLHIICHICVFYGYVLMFPAITSYYFILLCILILILHLFIFILAHFYKDR', 'group 1'),
  ('GKKSSGKKSGSSKKTKKDKKAEKDKTAADEKEKEEVKEKETGAEGEKTPEHSE', 'group 1'),
  ('KQYCVRPNSGRIEPGKDVEVQVLLQAMKEDPAPDAKCRDKFLVQSVAVTADKE', 'group 2'),
  ('MLDVNMSCPFADIRYLLVFSCYFADYLLMLQIWGFCLWLFTLIYMVGGVWLMV', 'group 1'),
  ('MFIFLFFIHLLSHLCFILILILLFSILLFYVPVICLSTFFILFYHHHLLCTHQ', 'group 1'),
  ('PSIRRCPVSFGDIDMEAELACIQYIREVLLPELVPCAYILLSYILHLLHEVSL', 'group 3'),
  ('SGLVIIFFMITRYFTATAEHLDHLSRCKVHNVPPYSYVFWICILGLELLLCSL', 'group 2'),
  ('IRLELGIIEDFFGLTLCMSKYLLYHYVISLKLSACFFAVHGYAPNGLDYPWVL', 'group 2');
